Measured values drawn from the supplement of paper PMC9694430 for this set.

Test system: LOC_OS01G48390-cb002
Measurement Description: thermal shift delta Tm vs DMSO control; higher = stronger stabilization (binding);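 also: purified Escherichia coli-expressed rice kinase domain construct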
Run Conditions: 12.5 µM; protein concentration 2 µM
Property: thermal shift delta Tm; scope: individual molecules

Here are 3 molecules together with their reported answers.
CCc1ccc(/C=C2/SC(=S)NC2=O)cc1 : 0.63 °C
Cc1ccc(NC(=O)c2cccc(C(C)(C)C#N)c2)cc1Nc1ccc2ncn(C)c(=O)c2c1 : 1.13 °C
Cc1ccc(Nc2cc(N[C@@H]3CCCC[C@@H]3N)nnc2C(N)=O)nc1C : 0.5 °C

Exam item: What does the data say about its thermal shift delta Tm? Entry: "Cn1cc(C2=C(c3ccc(Cl)cc3Cl)C(=O)NC2=O)c2ccccc21"
Marked response: 2.99 °C

Exam item: What does the data say about its thermal shift delta Tm? Entry: "CO[C@H]1C[C@@H]2CC[C@@H](C)[C@@](O)(O2)C(=O)C(=O)N2CCCC[C@H]2C(=O)O[C@H]([C@H](C)C[C@@H]2CC[C@@H](OC(=O)C(C)(CO)CO)[C@H](OC)C2)CC(=O)[C@H](C)/C=C(\C)[C@@H](O)[C@@H](OC)C(=O)[C@H](C)C[C@H](C)/C=C/C=C/C=C/1C"
Marked response: 0.44 °C

* * *

Property: thermal shift delta Tm; scope: individual compounds
System: LOC_OS02G08530-cb003
Measurement Description: thermal shift delta Tm vs DMSO control; higher = stronger stabilization (binding)
Run Conditions: 12.5 µM; protein concentration 2 µM
Give the number; °C is assumed, so skip it.

Here are 2 compounds together with their reported answers.
Cc1ccc(Nc2nccc(N(C)c3ccc4c(C)n(C)nc4c3)n2)cc1S(N)(=O)=O [Pazopanib] : 1.82
CN1CCN(Cc2ccc(-c3cnc4[nH]cc(-c5ccc6[nH]ccc6c5)c4c3)cc2)CC1 : 5.47

Exam item: Reported thermal shift delta Tm for LOC_OS02G08530-cb003, given "CS(=O)(=O)c1ccc(-c2cnc(N)c(C(=O)Nc3ccccc3)n2)cc1" ?
Marked response: 0.71

Exam item: Reported thermal shift delta Tm for LOC_OS02G08530-cb003, given "CSc1cccc(Nc2ncc3cc(-c4c(Cl)cccc4Cl)c(=O)n(C)c3n2)c1" ?
Marked response: 0.12

Exam item: Reported thermal shift delta Tm for LOC_OS02G08530-cb003, given CC(C)n1nc(-c2cc3cc(O)ccc3[nH]2)c2c(N)ncnc21 [Torkinib (PP242)] ?
Marked response: 0.63

* * *

Test system: LOC_OS06G16330-cb003
Sequence (as listed by the source): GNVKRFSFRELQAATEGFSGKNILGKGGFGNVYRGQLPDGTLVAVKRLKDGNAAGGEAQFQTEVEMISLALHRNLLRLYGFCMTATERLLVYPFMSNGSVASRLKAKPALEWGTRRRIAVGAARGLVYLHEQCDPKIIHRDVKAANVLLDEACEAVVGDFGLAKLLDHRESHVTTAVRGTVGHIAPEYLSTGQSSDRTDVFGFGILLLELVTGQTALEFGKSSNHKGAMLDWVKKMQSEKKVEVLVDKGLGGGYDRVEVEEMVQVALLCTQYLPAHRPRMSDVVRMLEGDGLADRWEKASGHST
Measurement Description: thermal shift delta Tm vs DMSO control; higher = stronger stabilization (binding)
Run Conditions: 12.5 µM; protein concentration 2 µM
Endpoint Label: thermal shift delta Tm (°C)
Give the number; °C is assumed, so skip it.

Cc1cc(CN2CCN(c3c(Br)cnc4nc(-c5ccc(N6CCN(C)CC6)cc5)[nH]c34)CC2)no1 : 5.31
O=C1NC(=O)/C(=C/c2ccc3nccc(-c4ccncc4)c3c2)S1 : 3.51

Exam item: What does the data say about its thermal shift delta Tm? Entry: "COc1cc2ncnc(Oc3cccc(NC(=O)Nc4cc(C(C)(C)C(F)(F)F)on4)c3)c2cc1OC"
Marked response: 0.19

Exam item: What does the data say about its thermal shift delta Tm? Entry: "CC(=O)Nc1cccc(-n2c(=O)n(C3CC3)c(=O)c3c(Nc4ccc(I)cc4F)n(C)c(=O)c(C)c32)c1"
Marked response: -0.52

Exam item: What does the data say about its thermal shift delta Tm? Entry: "Cc1[nH]c(/C=C2\C(=O)Nc3ccc(S(=O)(=O)Cc4c(Cl)cccc4Cl)cc32)c(C)c1C(=O)N1CCC[C@@H]1CN1CCCC1"
Marked response: 6.03

Exam item: What does the data say about its thermal shift delta Tm? Entry: "CCN1CCN(Cc2ccc(Nc3ncc(F)c(-c4cc(F)c5nc(C)n(C(C)C)c5c4)n3)nc2)CC1"
Marked response: 6.17

Exam item: What does the data say about its thermal shift delta Tm? Entry: "CN(C)CCCn1cc(C2=C(c3c[nH]c4ccccc34)C(=O)NC2=O)c2ccccc21"
Marked response: 0.14

Exam item: What does the data say about its thermal shift delta Tm? Entry: "N#Cc1c(Oc2ccc(F)c(NC(=O)Cc3cccc(C(F)(F)F)c3)c2)ccc2nc(NC(=O)C3CC3)sc12"
Marked response: 0.5

* * *

Test system: LOC_OS06G16330-cb003
Measurement Description: thermal shift delta Tm vs DMSO control; higher = stronger stabilization (binding)
Run Conditions: 12.5 µM; protein concentration 2 µM
Threshold check on thermal shift delta Tm: at or above 0.7 °C gives YES, strictly below gives NO.

CO[C@H]1C[C@@H]2CC[C@@H](C)[C@@](O)(O2)C(=O)C(=O)N2CCCC[C@H]2C(=O)O[C@H]([C@H](C)C[C@@H]2CC[C@@H](OP(C)(C)=O)[C@H](OC)C2)CC(=O)[C@H](C)/C=C(\C)[C@@H](O)[C@@H](OC)C(=O)[C@H](C)C[C@H](C)/C=C/C=C/C=C/1C : NO
CCc1nc(-c2cccc(C)c2)c(-c2ccnc(NC(=O)c3ccccc3)c2)s1 : NO

Exam item: Check the entry "COc1c(C)c(C(=O)c2ccc(N)c(C(=O)O)c2)n2ccccc12" : does thermal shift delta Tm equal or exceed 0.7 °C?
Marked response: NO

Exam item: Check the entry COc1ccc(S(=O)(=O)N(CCO)c2ccccc2CN(C)C/C=C/c2ccc(Cl)cc2)cc1 [KN-93 Phosphate] : does thermal shift delta Tm equal or exceed 0.7 °C?
Marked response: NO

Exam item: Check the entry "C=CC(=O)Nc1cc(Nc2nccc(-c3cn(C)c4ccccc34)n2)c(OC)cc1N(C)CCN(C)C" : does thermal shift delta Tm equal or exceed 0.7 °C?
Marked response: YES

Exam item: Check the entry "O=C1NCCc2[nH]c(-c3ccncc3)cc21" : does thermal shift delta Tm equal or exceed 0.7 °C?
Marked response: YES

* * *

Property: thermal shift delta Tm; scope: individual compounds
Tested on: LOC_OS01G01410-cb001
Measurement Description: thermal shift delta Tm vs DMSO control; higher = stronger stabilization (binding)
Run Conditions: 12.5 µM; protein concentration 2 µM
Param answer (str): number followed by unit.

CCNC(=O)C#Cc1ccc2c(C(=Nc3ccc(CN(C)C)cc3)c3ccccc3)c(O)[nH]c2c1 : 1.75 °C
CC[C@@H](N)CNc1ccnc(-c2cc(-c3cnn(C)c3)ccc2O)n1 : 0.15 °C

Exam item: Reported thermal shift delta Tm for LOC_OS01G01410-cb001, given CO[C@H]1C[C@@H]2CC[C@@H](C)[C@@](O)(O2)C(=O)C(=O)N2CCCC[C@H]2C(=O)O[C@H]([C@H](C)C[C@@H]2CC[C@@H](O)[C@H](OC)C2)CC(=O)[C@H](C)/C=C(\C)[C@@H](O)[C@@H](OC)C(=O)[C@H](C)C[C@H](C)/C=C/C=C/C=C/1C [Rapamycin (Sirolimus)] ?
Marked response: 0.87 °C

Exam item: Reported thermal shift delta Tm for LOC_OS01G01410-cb001, given "CCn1c(=O)c(-c2ccc(Cl)cc2Cl)cc2cnc(Nc3ccc(N4CCNCC4)c(F)c3)nc21" ?
Marked response: 5.82 °C

Exam item: Reported thermal shift delta Tm for LOC_OS01G01410-cb001, given c1cc(-c2cnn3cc(-c4ccc(OCCN5CCCCC5)cc4)cnc23)ccn1 [Dorsomorphin 2HCl] ?
Marked response: 4.71 °C

Exam item: Reported thermal shift delta Tm for LOC_OS01G01410-cb001, given "C[C@@H](N)c1ccc(C(=O)Nc2ccnc3[nH]ccc23)cc1" ?
Marked response: 0.24 °C

Exam item: Reported thermal shift delta Tm for LOC_OS01G01410-cb001, given "O=C(NC[C@H](O)CO)c1ccncc1Nc1ccc(I)cc1F" ?
Marked response: 0.13 °C

Exam item: Reported thermal shift delta Tm for LOC_OS01G01410-cb001, given "O=c1c(O)c(-c2ccc(O)c(O)c2)oc2cc(O)cc(O)c12" ?
Marked response: 3.05 °C

* * *

Tested on: LOC_OS04G38480-cb003
Sequence (whole entry): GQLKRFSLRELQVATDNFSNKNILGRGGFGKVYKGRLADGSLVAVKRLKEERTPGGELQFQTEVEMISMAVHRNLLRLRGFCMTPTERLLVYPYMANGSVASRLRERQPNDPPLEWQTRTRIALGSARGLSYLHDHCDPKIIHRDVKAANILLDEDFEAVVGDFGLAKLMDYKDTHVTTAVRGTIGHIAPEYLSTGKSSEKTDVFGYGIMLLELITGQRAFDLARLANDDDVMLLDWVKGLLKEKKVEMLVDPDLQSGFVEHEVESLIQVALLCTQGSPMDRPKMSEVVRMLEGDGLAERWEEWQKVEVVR
Measurement Description: thermal shift delta Tm vs DMSO control; higher = stronger stabilization (binding)
Run Conditions: 12.5 µM; protein concentration 2 µM
Where a name gives a salt, the structure may show the parent alone.
Threshold check on thermal shift delta Tm: at or above 0.8 °C gives TRUE, strictly below gives FALSE.

Exam item: Check the entry COc1cc2nccc(Oc3ccc(NC(=O)NC4CC4)c(Cl)c3)c2cc1C(N)=O [Lenvatinib (E7080)] : does thermal shift delta Tm equal or exceed 0.8 °C?
Marked response: FALSE

Exam item: Check the entry "Cc1nc2ccc(-n3ncc(C(=O)c4cc5ccccc5[nH]4)c3N)cc2[nH]1" : does thermal shift delta Tm equal or exceed 0.8 °C?
Marked response: TRUE

Exam item: Check the entry "Cn1c(Nc2ccc(C(F)(F)F)cc2)nc2cc(Oc3ccnc(-c4ncc(C(F)(F)F)[nH]4)c3)ccc21" : does thermal shift delta Tm equal or exceed 0.8 °C?
Marked response: TRUE

Exam item: Check the entry "O=C(NCCO)c1cccc(-c2cc(Nc3ccc(OC(F)(F)F)cc3)ncn2)c1" : does thermal shift delta Tm equal or exceed 0.8 °C?
Marked response: FALSE

Exam item: Check the entry CO[C@H]1C[C@@H]2CC[C@@H](C)[C@@](O)(O2)C(=O)C(=O)N2CCCC[C@H]2C(=O)O[C@H]([C@H](C)C[C@@H]2CC[C@@H](OCCO)[C@H](OC)C2)CC(=O)[C@H](C)/C=C(\C)[C@@H](O)[C@@H](OC)C(=O)[C@H](C)C[C@H](C)/C=C/C=C/C=C/1C [Everolimus (RAD001)] : does thermal shift delta Tm equal or exceed 0.8 °C?
Marked response: TRUE

Exam item: Check the entry "CC1(COc2ccc3c(c2)ncn3-c2ccc3cccc(N4CCC(N)CC4)c3n2)COC1" : does thermal shift delta Tm equal or exceed 0.8 °C?
Marked response: TRUE

Exam item: Check the entry "CCN1CCN(Cc2ccc(-c3cc4c(N[C@H](C)c5ccccc5)ncnc4[nH]3)cc2)CC1" : does thermal shift delta Tm equal or exceed 0.8 °C?
Marked response: TRUE

Exam item: Check the entry "CCn1c(=O)c(-c2ccc(Cl)cc2Cl)cc2cnc(Nc3ccc(N4CCNCC4)c(F)c3)nc21" : does thermal shift delta Tm equal or exceed 0.8 °C?
Marked response: TRUE

Exam item: Check the entry COc1cc2c3cc1Oc1c(OC)c(OC)cc4c1[C@@H](Cc1ccc(O)c(c1)Oc1ccc(cc1)C[C@@H]3N(C)CC2)N(C)CC4 [Berbamine (dihydrochloride)] : does thermal shift delta Tm equal or exceed 0.8 °C?
Marked response: FALSE

Exam item: Check the entry "CS(=O)(=O)N1CCN(Cc2cc3nc(-c4cccc5[nH]ncc45)nc(N4CCOCC4)c3s2)CC1" : does thermal shift delta Tm equal or exceed 0.8 °C?
Marked response: FALSE
